Data provenance: PubChem BioAssay AID1159580

- testName: chemical genetic growth profiling, strain panel (AID 1159580);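 also: tested at 20 µM; growth read once vehicle control cultures reached saturation at 30 °C; 1 = growth at the plate median or of vehicle wells; lower values mean less growth of the strain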
- testSettings: S. cerevisiae deletion strains, growth OD, locus YGR252W, strain gcn5, stronger effect = lower value
Among all 5,500 compounds or so, about 2,000 (36%) were called active. Roughly 18% stayed inconclusive and do not appear here. The list shows a part of the results.
Recorded normalized growth for the following compounds
valueKind: normalized growth

[[record]]
compound = "CS(=O)(=O)c1ccc(C2=C(c3ccccc3)C(=O)OC2)cc1"
reportedvalue = 0.967

[[record]]
compound = "COP(=O)(OC)OC=C(Cl)Cl"
reportedvalue = 0.998

[[record]]
compound = "CCOC(=O)C1(O)Oc2cc(OC)cc(OC)c2C(=O)C1c1ccccc1 (stereo unspecified)"
reportedvalue = 0.815

[[record]]
compound = "CCCCNc1cc(C(=O)O)cc(S(N)(=O)=O)c1Oc1ccccc1"
reportedvalue = 0.956

[[record]]
compound = "O=C(O)C1(O)C[C@@H](O)C(O)[C@H](O)C1 (stereo partly specified)"
reportedvalue = 0.954

[[record]]
compound = "CCOC(=O)C(=O)C1(C(=O)OCC)Oc2cc(OC)cc(OC)c2C(=O)C1c1ccccc1 (stereo unspecified)"
reportedvalue = 0.791

